Assay: Cell Viability - LYMP2-009 (AID 968);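 also: cells exposed to compound for 24 h at 37 °C; nearly all actives have a fitted effect of over 55% in size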
Conditions: LYMP2-009 lymphoblastoid cell viability; series mostly up to 92.2 µM
Inconclusive results are not listed. Active and inactive are the calls of the source. Calls follow the shape of the dose curve; as a rule, active = well fitted cell-killing curve with a large enough effect; inconclusive = small, poorly fitted or top-dose-only effect; inactive = flat fitted curve, though single readings scatter.
Give your call using only these classes: active, inactive

# Compound, Qualitative label
measured = [
    ("[O-][Cl+]O", "inactive"),
    ("FC(Cl)(Cl)Cl", "inactive"),
    ("CCOP(=S)(OCC)Oc1nc(Cl)c(Cl)cc1Cl", "inactive"),
]

Fill in: this test's call for OC[P+](CO)(CO)CO is ___
active

Test call, this compound: O=[N+]([O-])c1cccc(O)c1
inactive

Test call, this compound: O=C(O)C(Cl)Br (stereo not drawn)
inactive

Please state the recorded outcome for this compound: CC(C)OC(=O)Cc1ccccc1
inactive

* * *

Experiment: Cell Viability - LYMP2-017 (AID 972);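 also: cells exposed to compound for 24 hours at 37 °C; nearly all actives have a fitted effect of over 55% in size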
Conditions: LYMP2-017 lymphoblastoid cell viability; series mostly up to 92.2 µM
Results filed as inconclusive are left out. Calls of active or inactive are those of the source. Calls come from the whole dose curve; as a rule, active = well fitted cell-killing curve with a large enough effect; inconclusive = small, poorly fitted or top-dose-only effect; inactive = flat fitted curve, though single readings scatter.
Respond only with the outcome that fits, drawn from Y for active, N for inactive

Recorded test outcome, item O=S(=O)(Cl)c1ccccc1
N

Test call, this molecule: CN(C)c1ccc(N)cc1
Y

* * *

Test: Stat Signaling Pathway (AID 446);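 also: ME-180 cervical cancer cells given 40 pM IL-6 alongside compound; SIE-controlled beta-lactamase reporter measured as 460/530 nm FRET emission ratio; % is scaled to controls: 0 for no effect and ±100 for the full control effect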
Details: ME-180 (cervical carcinoma) SIE beta-lactamase reporter, IL-6 stimulated, 5 h; at 7.69 µM (top of the series) unless noted
Records with an inconclusive call do not appear. Activity calls are given as the source filed them. Calls follow the shape of the dose curve; as a rule, active = well fitted curve in either direction with a large enough effect (not every such curve was filed as active); inconclusive = small, poorly fitted or top-dose-only effect, or another doubt; inactive = flat fitted curve, though single readings scatter.
Would you mind answering with one of these outcomes? TRUE (active), FALSE (inactive)

# Structure, Qualitative label
data = [
    ("C[N+]1(C)CCc2cc3c(cc2[C@@H]1[C@@H]1OC(=O)c2c1ccc1c2OCO1)OCO3", "FALSE"),
    ("NC[C@H](O)c1cc(O)c(O)cc1F", "FALSE"),
    ("NC[C@@H](Cc1ccccc1)P(=O)(O)O", "FALSE"),
    ("O=C(N1CCOCC1)C1(c2ccccc2)CCNCC1", "FALSE"),
    ("CN(C)CCCNc1c2c(nc3ccc(Cl)cc13)CCCC2", "FALSE"),
]

Continue with the next molecule.
Outcome? N#CCCCC[N+]12CN3CN(CN(C3)C1)C2
FALSE

* * *

Experiment: qHTS assay for cell viability of the p53RE-bla HCT-116 cell line (AID 743292); also: % is scaled to controls: 0 for no effect and ±100 for the full control effect; nearly all actives have a fitted effect of over 55% in size
Details: p53RE-bla HCT-116 viability, ATP luminescence, 16 h; series mostly up to 95 µM
Records with an inconclusive call do not appear. Active and inactive are the calls of the source. Calls follow the shape of the dose curve; as a rule, active = well fitted cell-killing curve with a large enough effect; inconclusive = small, poorly fitted or top-dose-only effect, or effect the other way; inactive = flat fitted curve, though single readings scatter.
Could you please pick one outcome from this set? t for active, f for inactive

Worked set:
# Molecule, Qualitative label
data = [
    ("c1ccc(N=NNc2ccccc2)cc1", "f"),
    ("CN(C)N=O", "f"),
    ("CC(C#N)CCC#N (centres undefined)", "f"),
]

What outcome does the record of this test show for CC(C)(C)C(O)(CCc1ccc(Cl)cc1)Cn1cncn1 (centres undefined) ?
f

Which outcome was entered for the molecule O=C(O)c1cccc(Cl)c1 in this test?
f

In this assay, the call recorded for CC(C)(C)OOC(=O)c1ccccc1 was what?
f

Could you check what this test reported for COc1cc(-c2ccc(N)c(OC)c2)ccc1N ?
f

So what was the verdict on O=C(Cc1ccccc1)OCc1ccccc1 in this test?
f

* * *

Assay: qHTS assay for small molecule agonists of retinoid X receptor alpha signaling (AID 588544)
Settings: HEK293T RXRa-UAS-bla, beta-lactamase reporter, 18 h; 530 nm emission
Records with an inconclusive call do not appear.
Consider the following compounds; for each one, report its max response.
Numbers only, in %.

# Compound, Units of measure, max response
measured = [
    ("O=C(O)C(Cl)(Cl)Br", "%", -15.6),
    ("O=C(Cl)c1ccccc1F", "%", 6.73),
]

Please state max response for every compound in the list that follows.
1. BrCCc1ccccc1
2. CCNCC
3. CC(C)OC(=O)Cc1ccccc1
4. Clc1cccc2ccccc12

[1.56, -7.47, 1.88, 0.056]

// input: 4 compounds below; output: max response for each
1. CC(C)OS(C)(=O)=O
2. O=[N+]([O-])c1ccccc1O
3. Cl/C=C/Cl
4. CN(C)c1ccc(N=Nc2ccccc2)cc1

-2.85
-4.21
1.12
-0.567

Hello, I would appreciate it if you could give max response for each entry below.
1. NC1CCC(CC2CCC(N)CC2)CC1 (configuration not stated)
2. [N-]=[N+]=[N-]

1: 8.4; 2: -2.08
